# experiment.description: Cytotoxicity against African green monkey Vero E6 cells incubated for 48 hrs by neutral red uptake assay
# Type: toxicity, cell-based, Vero C1008
# measurement.conditions: chlorocebus sabaeus
readout.type: CC50 at 48 h (µM)
Give a bare numeral; the unit µM is implied.

These recorded examples may help you get a feel for the data.
C[C@H](c1cccc2ccccc12)N(C)Cc1ccc(O)cc1O: 31.5
C[C@H](c1cccc2ccccc12)N(C)Cc1ccc(O)cc1: 23.7
C[C@H](c1cccc2ccccc12)N(C)Cc1c[nH]c2ccc(F)cc12: 32.5
C[C@H](c1cccc2ccccc12)N(C)Cc1ccc2[nH]ncc2c1: 35.5
Cc1ccc(OCCN)cc1C(=O)N[C@H](C)c1cccc(-c2ccc(C#N)s2)c1: 15

stdin: Entry C[C@H](c1cccc2ccccc12)N(C)Cc1ccc2cn[nH]c2c1 : reported CC50 at 48 h = ?
stdout: 28.3

* * *

Known CC50 at 48 h of a selection of compounds
# experiment.description: Cytotoxicity against African green monkey Vero E6 cells incubated for 48 hrs by neutral red uptake assay
# Type: toxicity, cell-based, Vero C1008
# measurement.conditions: chlorocebus sabaeus
Give a bare numeral; the unit µM is implied.

These recorded examples may help you get a feel for the data.
Cc1ccc(OCCN)cc1C(=O)N[C@H](C)c1cccc(-c2cccs2)c1: 15.2
Cc1ccc(OCCN)cc1C(=O)N[C@H](C)c1cccc(-c2ccc(O)cc2)c1: 45.2
Cc1ccc(OCCN)cc1C(=O)N[C@H](C)c1cccc(-c2ccoc2)c1: 103
C[C@H](c1cccc2ccccc12)N(C)Cc1c[nH]c2ccccc12: 24.7
Cc1ccc(NC2CNC2)cc1CN(C)[C@H](C)c1cccc2ccccc12: 13.7
Cc1ccc(O)cc1CN(C)[C@H](C)c1cccc2ccccc12: 14.4

stdin: Entry C[C@H](c1cccc2ccccc12)N(C)Cc1c[nH]c2cc(F)ccc12 : reported CC50 at 48 h = ?
stdout: 31.8

* * *

# measurement.conditions: mouse, microsomes, 1 h, 1 µM
Known t1/2 of a selection of compounds
Give a bare numeral; the unit h is implied.

Cc1ccc(OCCN)cc1C(=O)N[C@H](C)c1cccc(-c2ccc(O)cc2)c1: 0.962

stdin: Entry Cc1ccc(NC2CNC2)cc1CN(C)[C@H](C)c1cccc2ccccc12 : reported t1/2 = ?
stdout: 1.673

stdin: Entry Cc1ccc(OCCN)cc1C(=O)N[C@H](C)c1cccc(-c2ccsc2)c1 : reported t1/2 = ?
stdout: 1.958

stdin: Entry Cc1ccc(OCCN)cc1C(=O)N[C@H](C)c1cccc(-c2ccoc2)c1 : reported t1/2 = ?
stdout: 0.897

* * *

# assay.system: UniProt P0DTD1
# experiment.description: biochemical
readout.type: IC50 (µM)
Give a bare numeral; the unit µM is implied.

These recorded examples may help you get a feel for the data.
Cc1ccc(OCCN)cc1C(=O)N[C@H](C)c1cccc(-c2ccccc2O)c1: 2.25
Cc1ccc(OCCN)cc1C(=O)N[C@H](C)c1cccc(-c2cnn(C)c2)c1: 0.96
C[C@H](c1cccc(-c2cccs2)c1)N(C)Cc1c[nH]c2ccc(F)cc12: 2.66
Cc1ccc(OCCN)cc1C(=O)N[C@H](C)c1cccc(-c2cnn(C(F)F)c2)c1: 1.14
Cc1ccc(OCCN)cc1C(=O)N[C@H](C)c1cccc(-c2c(C)noc2C)c1: 1.48

stdin: API: value(readout= IC50, system= UniProt P0DTD1, query= Cc1ccc(OCCN)cc1C(=O)N[C@H](C)c1cccc(-c2ccc(C#N)cc2)c1 )
stdout: 0.89

stdin: API: value(readout= IC50, system= UniProt P0DTD1, query= C[C@H](c1cccc(-c2cccs2)c1)N(C)Cc1c[nH]c2cc(F)ccc12 )
stdout: 2.34

stdin: API: value(readout= IC50, system= UniProt P0DTD1, query= C[C@H](c1cccc(-c2ccc(CN3CCCC3)s2)c1)N(C)Cc1cccc2[nH]ccc12 )
stdout: 3.39

stdin: API: value(readout= IC50, system= UniProt P0DTD1, query= Cc1ccc(OCCN)cc1C(=O)N[C@H](C)c1cccc(-c2ccc3c(c2)CCO3)c1 )
stdout: 1.08

stdin: API: value(readout= IC50, system= UniProt P0DTD1, query= C[C@H](c1cccc(-c2cccs2)c1)N(C)Cc1ccc2cn[nH]c2c1 )
stdout: 2.36

stdin: API: value(readout= IC50, system= UniProt P0DTD1, query= Cc1ccc(OCCN)cc1C(=O)N[C@H](C)c1cccc(-c2ccn[nH]2)c1 )
stdout: 1.16

stdin: API: value(readout= IC50, system= UniProt P0DTD1, query= Cc1ccc(OCCN)cc1C(=O)N[C@H](C)c1cccc(-c2cn[nH]c2)c1 )
stdout: 1.49

stdin: API: value(readout= IC50, system= UniProt P0DTD1, query= COCCn1cc(-c2cccc([C@@H](C)NC(=O)c3cc(OCCN)ccc3C)c2)cn1 )
stdout: 1.51

stdin: API: value(readout= IC50, system= UniProt P0DTD1, query= COc1cc(O)ccc1CN(C)[C@@H](C)c1cccc(-c2ccc(CN3CCCC3)s2)c1 )
stdout: 3

stdin: API: value(readout= IC50, system= UniProt P0DTD1, query= Cc1ccc(OCCN)cc1C(=O)N[C@H](C)c1cccc(-c2ccn(C)c2C)c1 )
stdout: 3.35

stdin: API: value(readout= IC50, system= UniProt P0DTD1, query= Cc1ccc(OCCN)cc1C(=O)N[C@H](C)c1cccc(-c2cnn(Cc3ccccc3)c2)c1 )
stdout: 1.03

stdin: API: value(readout= IC50, system= UniProt P0DTD1, query= Cc1ccc(OCCN)cc1C(=O)N[C@H](C)c1cccc(-c2ccnn2C)c1 )
stdout: 2.78

stdin: API: value(readout= IC50, system= UniProt P0DTD1, query= C[C@H](c1cccc(-c2ccc(CN3CCCC3)s2)c1)N(C)Cc1ccc2[nH]ncc2c1 )
stdout: 7.09

stdin: API: value(readout= IC50, system= UniProt P0DTD1, query= Cc1ccc(OCCN)cc1C(=O)N[C@H](C)c1cccc(-c2ccc(CNC3CC3)s2)c1 )
stdout: 0.94

stdin: API: value(readout= IC50, system= UniProt P0DTD1, query= C[C@H](c1cccc(-c2cccs2)c1)N(C)Cc1ccc(O)cc1O )
stdout: 5.03

stdin: API: value(readout= IC50, system= UniProt P0DTD1, query= Cc1ccc(OCCN)cc1C(=O)N[C@H](C)c1cccc(-c2ccc(F)cc2F)c1 )
stdout: 1.54
